Target: DNA polymerase III PolC-type (Bacillus subtilis (strain 168)) (UniProt P13267)
Sequence (P13267 whole entry, looked up): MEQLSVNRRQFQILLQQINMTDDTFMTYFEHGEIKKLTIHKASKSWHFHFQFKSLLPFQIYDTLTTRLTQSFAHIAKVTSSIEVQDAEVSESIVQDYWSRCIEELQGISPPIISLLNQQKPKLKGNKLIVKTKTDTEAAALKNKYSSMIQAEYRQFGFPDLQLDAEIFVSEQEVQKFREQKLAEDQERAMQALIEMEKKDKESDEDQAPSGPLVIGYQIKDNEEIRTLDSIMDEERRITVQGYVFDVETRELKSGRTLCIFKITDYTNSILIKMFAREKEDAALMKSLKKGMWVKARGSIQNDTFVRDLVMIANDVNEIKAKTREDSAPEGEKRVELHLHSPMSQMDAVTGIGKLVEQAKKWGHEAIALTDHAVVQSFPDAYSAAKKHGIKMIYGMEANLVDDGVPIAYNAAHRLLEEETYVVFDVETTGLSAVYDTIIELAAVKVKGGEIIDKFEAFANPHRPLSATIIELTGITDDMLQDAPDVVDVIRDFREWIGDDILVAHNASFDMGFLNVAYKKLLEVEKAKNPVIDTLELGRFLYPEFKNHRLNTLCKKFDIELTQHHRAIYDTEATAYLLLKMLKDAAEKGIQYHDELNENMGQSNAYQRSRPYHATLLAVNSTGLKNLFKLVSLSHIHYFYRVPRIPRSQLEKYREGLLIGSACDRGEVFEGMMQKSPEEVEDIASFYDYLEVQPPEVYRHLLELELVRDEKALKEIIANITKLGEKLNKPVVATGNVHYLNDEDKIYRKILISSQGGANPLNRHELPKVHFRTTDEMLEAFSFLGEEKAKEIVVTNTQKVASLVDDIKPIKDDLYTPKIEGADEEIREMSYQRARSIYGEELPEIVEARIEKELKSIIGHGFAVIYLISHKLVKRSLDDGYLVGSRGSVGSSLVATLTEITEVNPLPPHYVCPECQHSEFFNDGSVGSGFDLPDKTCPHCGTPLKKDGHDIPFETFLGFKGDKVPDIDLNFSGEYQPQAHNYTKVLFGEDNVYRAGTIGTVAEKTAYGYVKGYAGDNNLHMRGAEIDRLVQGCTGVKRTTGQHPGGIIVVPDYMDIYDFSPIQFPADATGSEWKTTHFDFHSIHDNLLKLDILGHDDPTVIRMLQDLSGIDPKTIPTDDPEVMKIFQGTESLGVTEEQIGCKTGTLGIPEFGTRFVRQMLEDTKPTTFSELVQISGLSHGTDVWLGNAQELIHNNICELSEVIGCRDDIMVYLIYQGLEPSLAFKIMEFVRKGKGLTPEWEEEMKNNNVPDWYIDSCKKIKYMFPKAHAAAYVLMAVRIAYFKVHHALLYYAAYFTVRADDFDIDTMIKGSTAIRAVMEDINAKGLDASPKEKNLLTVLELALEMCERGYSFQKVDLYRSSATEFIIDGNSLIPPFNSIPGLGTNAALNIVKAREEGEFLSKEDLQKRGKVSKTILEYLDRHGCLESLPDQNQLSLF
Experiment: qHTS Validation Assay for the Inhibitors of DNA Replication in Gram-Positive Bacteria (AID 485295)
Conditions: Gram-positive bacterial DNA replication assay; series mostly up to 57.1 µM
The source made the active and inactive calls. Calls follow the shape of the dose curve; as a rule, active = well fitted inhibition curve with a large enough effect; inconclusive = small, poorly fitted or top-dose-only effect; inactive = flat fitted curve, though single readings scatter.
// one of active, inactive, no free text

Write down the call the test reported for this compound. Item: "Cc1cc2c(C(C)C)c(O)c(O)c(C=O)c2c(O)c1-c1c(C)cc2c(C(C)C)c(O)c(O)c(C=O)c2c1O"
active

Which outcome was entered for the compound "C=C(C)[C@H]1Cc2c(ccc3c2O[C@@H]2COc4cc(OC)c(OC)cc4[C@@H]2C3=O)O1" in this test?
inactive

Please state the recorded outcome for this compound: "CN1C[C@H](CNC(=O)OCc2ccccc2)C[C@@H]2c3cccc4c3c(cn4C)C[C@H]21"
inactive

Can you look up the reported call for "CC(=O)[C@H]1CC[C@H]2[C@@H]3CC[C@H]4C[C@H](O)CC[C@]4(C)[C@H]3C(=O)C[C@]12C" for me?
inactive

State the result this test recorded for "CCCN1CCC[C@@H]2Cc3[nH]ncc3C[C@H]21" .
inactive

Dear all, I need the recorded test outcome for "Fc1ccc(C(OCCN2CCN(CCCc3ccccc3)CC2)c2ccc(F)cc2)cc1" , thank you.
inactive

In this assay, the call recorded for "CC(=O)[C@H]1CC[C@H]2[C@@H]3CC[C@H]4C[C@](C)(O)CC[C@]4(C)[C@H]3CC[C@]12C" was what?
inactive

Test call for this compound, please: CNCC(O)c1ccc(O)cc1 (centres undefined)
inactive

Kindly provide the recorded test outcome for the following compound: c1ccc2c(c1)OCC(C1=NCCN1)O2 (centres undefined)
inactive

Could you kindly confirm the outcome this assay logged for "Nc1ccncc1" ?
inactive

Test call, this compound: NCC(CC(=O)O)c1ccc(Cl)cc1 (centres undefined)
inactive

In this assay, the call recorded for "O=c1c(O)c(-c2ccc(O)c(O)c2)oc2cc(O)cc(O)c12" was what?
active

GET /call?item= CCC1(C2=NCCN2)Cc2ccccc2O1 (centres undefined) returns the recorded outcome of this test.
inactive

Entry "NN=C(N)N" : call = ?
inactive

###

Assay: qHTS of pediatric cancer cell lines to identify multiple opportunities for drug repurposing: Primary screen for SJ-GBM2 cells (AID 1347091)
Settings: SJ-GBM2 viability, CellTiter-Glo luminescence, 48 h; series mostly up to 46 µM
Records with an inconclusive call do not appear. Activity calls are given as the source filed them. The call rests on the fitted dose curve; in most records, active means well fitted cell-killing curve with a large enough effect; inconclusive means small, poorly fitted or top-dose-only effect; inactive means no such curve, though single readings can be large or run the other way.
The reply should name one outcome from active, inactive

For "NP(N)(=O)NC(=O)c1ccc(F)cc1" , which call appears in the assay record?
inactive

Call for entry "O=c1[nH]c2ccccc2n1CCCN1CCC(n2c(=O)[nH]c3cc(Cl)ccc32)CC1" :
inactive

Outcome? COc1ccc(C(CN(C)C)C2(O)CCCCC2)cc1 (stereo not given)
inactive

Outcome? C[C@@H]1[C@@H](CC(C[C@H]2O[C@@H]3O[C@]4(C)CC[C@@H]5[C@H](C)CC[C@@H]([C@H]2C)[C@@]35OO4)C[S+](=O)([O-])c2ccc(COC(=O)N(C)C)cc2)O[C@@H]2O[C@]3(C)CC[C@H]4[C@H](C)CC[C@@H]1[C@@]24OO3 (stereo not given in full)
active

Each compound tested received a call. Report the one for "NN=C(N)N" .
inactive

// return assay outcome for "C#CCN(C)[C@H](C)Cc1ccccc1"
inactive

Please share the test call associated with "CCN(CC)CCOC(=O)C(O)(c1ccccc1)c1ccccc1" .
inactive

Hey, what did the test say about "Cc1ccc(-c2nc3ccc(C)cn3c2CC(=O)N(C)C)cc1" ?
inactive

What did this assay record as the result for CCCC1CCCCN1 (stereo not given) ?
inactive

GET /call?item= "O=[N+]([O-])c1cc([As](=O)(O)O)ccc1O" returns the recorded outcome of this test.
inactive

Check the results log: what was the call for "CN1CCN(C(=O)O[C@H]2c3nccnc3C(=O)N2c2ccc(Cl)cn2)CC1" ?
inactive

Returns: the outcome recorded for CC1OC(C)OC(C)O1 (stereo not given) in this assay.
inactive

Each compound tested received a call. Report the one for "CCN(CC)CCN1C(=O)CN=C(c2ccccc2F)c2cc(Cl)ccc21" .
inactive

Could you please tell me the result logged for "C[C@]12CCC(=O)C(O)=C1CC[C@@H]1[C@@H]2CC[C@]2(C)C(=O)CC[C@@H]12" in this assay?
inactive

What did the test return for "C=C(C)[C@H]1Cc2c(ccc3c2O[C@@H]2COc4cc(OC)c(OC)cc4[C@@H]2C3=O)O1" ?
active
